Tested on: HeLa
Assay: Cytotoxicity against human HeLa cells after 3 days by MTT assay
Assay type: functional, cell-based
Conditions: 72 h
Measured IC50, listed per entry.
Could you give me the number in µM? Just the number is fine.

Test item Cc1ccc(S(=O)(=O)N[C@@H](Cc2ccccc2)C(=O)OC[C@H](Cc2ccccc2)NC(=O)c2ccccc2)cc1 ; HeLa; reported IC50 was 37.6

Value (IC50, HeLa) for record O=C(N[C@@H](COC(=O)[C@@H](Cc1ccccc1)NC(=O)n1cncn1)Cc1ccccc1)c1ccccc1 = 91.2

Short answer on HeLa for O=C(N[C@@H](COC(=O)[C@@H](Cc1ccccc1)NC(=O)n1ccnc1)Cc1ccccc1)c1ccccc1 , IC50: 79.1
